# measured-target: Met receptor (EGFR/Met chimeric cells, EMR) (Homo sapiens)
# Construct: expressed in transfected cells; the other entry of the earlier key: EGFR (P00533, Epidermal growth factor receptor)
# method-summary: Met Autophosphorylation Assay
# Type: biochemical
Threshold rule: Met Kinase % Inhibition (P.130) greater than or equal to 50% is satisfied; below that, not satisfied.

// inclusive: Met Kinase % Inhibition (P.130) at least 50%? input: O=C1Nc2ccc(S(=O)(=O)Nc3ccc(C(F)(F)F)cc3)cc2C1=Cc1ccccc1F
satisfied

// inclusive: Met Kinase % Inhibition (P.130) at least 50%? input: COc1cccc(C=C2C(=O)Nc3ccc(S(=O)(=O)N4CCOCC4)cc32)c1
satisfied

// inclusive: Met Kinase % Inhibition (P.130) at least 50%? input: COc1cccc(C=C2C(=O)Nc3c(Br)cc(Br)c(C)c32)c1O
satisfied

// inclusive: Met Kinase % Inhibition (P.130) at least 50%? input: O=C1Nc2ccc(CCCl)cc2C1=Cc1cc(C(F)(F)F)cc(C(F)(F)F)c1
not satisfied

// inclusive: Met Kinase % Inhibition (P.130) at least 50%? input: CNS(=O)(=O)c1ccc2c(c1)C(=Cc1ccc(C(C)(C)C)cc1)C(=O)N2
not satisfied

====

# measured-target: EGFR (Homo sapiens)
# Construct: endogenous in cells; host or cells: A431 cells (lysate, captured with SUMO1 anti-EGFR antibody)
# Sequence (P00533 25-1210): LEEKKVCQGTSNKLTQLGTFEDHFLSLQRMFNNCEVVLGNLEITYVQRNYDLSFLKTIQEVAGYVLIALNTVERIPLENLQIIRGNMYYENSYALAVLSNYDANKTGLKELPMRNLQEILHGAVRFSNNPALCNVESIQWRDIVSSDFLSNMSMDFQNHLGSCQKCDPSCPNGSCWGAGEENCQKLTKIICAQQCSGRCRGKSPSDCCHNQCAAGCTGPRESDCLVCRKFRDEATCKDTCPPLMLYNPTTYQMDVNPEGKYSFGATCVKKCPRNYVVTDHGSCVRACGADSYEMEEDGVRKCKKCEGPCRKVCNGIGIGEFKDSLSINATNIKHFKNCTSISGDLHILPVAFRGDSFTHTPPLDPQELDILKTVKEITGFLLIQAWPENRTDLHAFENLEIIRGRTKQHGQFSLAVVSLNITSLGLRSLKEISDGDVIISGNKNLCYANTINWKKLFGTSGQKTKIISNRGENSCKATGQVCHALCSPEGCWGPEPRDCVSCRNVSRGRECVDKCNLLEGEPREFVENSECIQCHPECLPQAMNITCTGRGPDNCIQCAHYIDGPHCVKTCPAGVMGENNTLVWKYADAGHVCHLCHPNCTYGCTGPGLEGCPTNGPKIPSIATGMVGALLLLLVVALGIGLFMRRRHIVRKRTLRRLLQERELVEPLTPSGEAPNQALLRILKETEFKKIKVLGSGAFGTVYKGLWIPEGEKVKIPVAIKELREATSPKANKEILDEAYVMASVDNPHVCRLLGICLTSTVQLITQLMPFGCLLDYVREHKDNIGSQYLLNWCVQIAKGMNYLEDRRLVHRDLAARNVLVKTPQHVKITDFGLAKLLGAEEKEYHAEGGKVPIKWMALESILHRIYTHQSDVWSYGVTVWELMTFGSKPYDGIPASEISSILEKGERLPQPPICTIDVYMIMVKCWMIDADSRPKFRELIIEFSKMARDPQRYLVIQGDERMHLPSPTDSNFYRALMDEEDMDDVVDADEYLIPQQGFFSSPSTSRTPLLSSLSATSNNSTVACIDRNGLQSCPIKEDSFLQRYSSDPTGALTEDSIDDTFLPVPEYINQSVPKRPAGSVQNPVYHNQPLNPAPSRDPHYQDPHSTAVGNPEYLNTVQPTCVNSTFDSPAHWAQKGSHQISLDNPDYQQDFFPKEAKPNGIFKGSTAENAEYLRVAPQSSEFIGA
# method-summary: Biochemical EGFR Assay
# Set-up: concentration or dose not given beside the values
# settings: protocol P.167
measured-property: Biochem EGFR % Inhibition (P.167) (%)
Entry rule: numbers only, all in %.

# lookup: Biochem EGFR % Inhibition (P.167) of O=C1Nc2ccc(CCCl)cc2C1=Cc1ccsc1
18.7

# lookup: Biochem EGFR % Inhibition (P.167) of COC1CCCN1C=C1C(=O)Nc2ccc(CCCl)cc21 (stereo not drawn)
7.6

# lookup: Biochem EGFR % Inhibition (P.167) of CNS(=O)(=O)c1ccc2c(c1)C(=Cc1ccc(C(C)C)cc1)C(=O)N2
−12.4

====

# System: FLK-1 receptor
# method-summary: FLK-1 Assay (cellular/catalytic ELISA, VEGF-stimulated phosphotyrosine)
# Assay type: cell-based
# Parameters: concentration or dose not given beside the values
Exercise: for every item that follows, state its recorded Flk Kinase % Inhibition (P.110).
Phrase the answer as number then unit, nothing more needed.

# lookup: Flk Kinase % Inhibition (P.110) of Cc1c(Br)cc(Br)c2c1C(=Cc1cccc(C(F)(F)F)c1F)C(=O)N2
1.5%

# lookup: Flk Kinase % Inhibition (P.110) of COc1cc(C=C2C(=O)Nc3c(Br)cc(Br)c(C)c32)cc(OC)c1OC
12.1%

# lookup: Flk Kinase % Inhibition (P.110) of O=C1Nc2ccc(S(=O)(=O)N3CCOCC3)cc2C1=Cc1ccc(-c2ccccc2)cc1
34.6%

====

Exercise: for every item that follows, state its recorded Met Kinase % Inhibition (P.130).
# measured-target: Met receptor (EGFR/Met chimeric cells, EMR) (Homo sapiens, UniProt P08581)
# Construct: expressed in transfected cells; the other entry of the earlier key: EGFR (P00533, Epidermal growth factor receptor)
# Sequence (P08581 with tags, fused parts or gaps): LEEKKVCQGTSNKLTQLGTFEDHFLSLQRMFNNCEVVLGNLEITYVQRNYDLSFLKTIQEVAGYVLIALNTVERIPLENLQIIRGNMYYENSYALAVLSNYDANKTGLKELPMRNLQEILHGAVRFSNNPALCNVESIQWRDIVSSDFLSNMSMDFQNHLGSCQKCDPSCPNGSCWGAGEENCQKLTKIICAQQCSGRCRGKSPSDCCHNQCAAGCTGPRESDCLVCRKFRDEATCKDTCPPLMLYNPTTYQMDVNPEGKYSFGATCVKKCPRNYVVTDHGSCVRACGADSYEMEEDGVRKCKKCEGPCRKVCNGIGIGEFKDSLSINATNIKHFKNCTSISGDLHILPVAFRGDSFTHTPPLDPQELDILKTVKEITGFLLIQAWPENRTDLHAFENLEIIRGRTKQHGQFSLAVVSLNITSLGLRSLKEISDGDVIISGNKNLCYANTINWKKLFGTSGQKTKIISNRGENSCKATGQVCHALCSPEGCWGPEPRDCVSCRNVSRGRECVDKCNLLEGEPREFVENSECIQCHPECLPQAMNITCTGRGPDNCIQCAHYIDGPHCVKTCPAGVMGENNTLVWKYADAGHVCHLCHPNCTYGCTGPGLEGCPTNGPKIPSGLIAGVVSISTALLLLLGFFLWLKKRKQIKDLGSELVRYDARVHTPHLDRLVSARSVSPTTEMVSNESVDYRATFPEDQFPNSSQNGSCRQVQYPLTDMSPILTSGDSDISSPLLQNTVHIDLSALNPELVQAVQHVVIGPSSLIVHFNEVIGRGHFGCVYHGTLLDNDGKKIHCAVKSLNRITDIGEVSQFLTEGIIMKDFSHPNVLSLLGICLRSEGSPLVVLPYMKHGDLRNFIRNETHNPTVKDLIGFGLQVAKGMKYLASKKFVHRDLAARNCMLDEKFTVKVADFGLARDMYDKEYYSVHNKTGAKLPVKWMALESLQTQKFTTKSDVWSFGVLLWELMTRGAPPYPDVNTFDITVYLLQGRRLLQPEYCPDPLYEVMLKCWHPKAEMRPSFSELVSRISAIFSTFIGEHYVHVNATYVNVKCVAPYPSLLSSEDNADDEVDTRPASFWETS
# method-summary: Met Autophosphorylation Assay
# Type: biochemical
Entry rule: numbers only, all in %.

# lookup: Met Kinase % Inhibition (P.130) of O=C1Nc2ccc(S(=O)(=O)N3CCOCC3)cc2C1=Cc1ccccc1F [10736/F08]
−0.2

# lookup: Met Kinase % Inhibition (P.130) of Cc1ccsc1C=C1C(=O)Nc2c(Br)cc(Br)c(C)c21 [10729/H05]
27.9

# lookup: Met Kinase % Inhibition (P.130) of Cc1c(Br)cc(Br)c2c1C(=Cc1nn(C)cc1Cl)C(=O)N2 [10721/H03]
21.3

# lookup: Met Kinase % Inhibition (P.130) of O=C1Nc2c(Br)cc(Br)cc2C1=Cc1ccc(O)c(Br)c1 [10734/A09]
88.4

# lookup: Met Kinase % Inhibition (P.130) of COc1cc(O)ccc1C=C1C(=O)Nc2c(Br)cc(Br)c(C)c21 [10720/H03]
40.0

# lookup: Met Kinase % Inhibition (P.130) of Cc1cccc(C=C2C(=O)Nc3c(Br)cc(Br)cc32)c1 [10736/A04]
75.2

# lookup: Met Kinase % Inhibition (P.130) of CCOC(=O)c1c(C)[nH]c(C=C2C(=O)Nc3c(Br)cc(Br)c(C)c32)c1C [10718/H02]
31.5

# lookup: Met Kinase % Inhibition (P.130) of CNS(=O)(=O)c1ccc2c(c1)C(=Cc1ccc(-c3ccccc3)cc1)C(=O)N2 [10735/D11]
18.5

# lookup: Met Kinase % Inhibition (P.130) of O=C1Nc2ccc(S(=O)(=O)N3CCOCC3)cc2C1=Cc1ccc(-c2ccccc2)cc1 [10735/F11]
16.6

# lookup: Met Kinase % Inhibition (P.130) of CCOC(=O)c1cc(C=C2C(=O)Nc3c(Br)cc(Br)c(C)c32)oc1C [10718/H06]
32.2

# lookup: Met Kinase % Inhibition (P.130) of Cc1c(Br)ccc2c1C(=Cc1ccc(Cl)cc1)C(=O)N2 [10736/C02]
50.1

# lookup: Met Kinase % Inhibition (P.130) of CNS(=O)(=O)c1ccc2c(c1)C(=Cc1ccccc1C#N)C(=O)N2 [10735/D07]
33.7

# lookup: Met Kinase % Inhibition (P.130) of O=C1Nc2c(Br)cc(Br)cc2C1=Cc1cc(F)cc(F)c1 [10735/A04]
48.0

# lookup: Met Kinase % Inhibition (P.130) of CCN(CC)c1ccc(C=C2C(=O)Nc3ccc(Br)c(C)c32)c(O)c1 [10734/C05]
52.7

# lookup: Met Kinase % Inhibition (P.130) of Cc1c(Br)ccc2c1C(=Cc1cc(F)cc(F)c1)C(=O)N2 [10735/C04]
75.8

# lookup: Met Kinase % Inhibition (P.130) of Cc1c(Br)cc(Br)c2c1C(=Cc1cc(Br)cc(Br)c1O)C(=O)N2 [10734/H07]
84.9

# lookup: Met Kinase % Inhibition (P.130) of CNS(=O)(=O)c1ccc2c(c1)C(=Cc1cccc3ccccc13)C(=O)N2 [10735/D09]
23.0

# lookup: Met Kinase % Inhibition (P.130) of CNS(=O)(=O)c1ccc2c(c1)C(=Cc1cc(F)cc(F)c1)C(=O)N2 [10735/D04]
25.6

# lookup: Met Kinase % Inhibition (P.130) of Cc1c(Br)cc(Br)c2c1C(=Cc1cccc(F)c1O)C(=O)N2 [10734/H08]
64.8

# lookup: Met Kinase % Inhibition (P.130) of Cc1cc(C)c(C=C2C(=O)Nc3c(Br)cc(Br)c(C)c32)[nH]1 [10721/H08]
42.5

# lookup: Met Kinase % Inhibition (P.130) of CNS(=O)(=O)c1ccc2c(c1)C(=Cc1cc(Cl)ccc1O)C(=O)N2 [10734/D04]
46.9

# lookup: Met Kinase % Inhibition (P.130) of Cc1cc(C=C2C(=O)Nc3c(Br)cc(Br)c(C)c32)sc1C [10721/H04]
72.9

# lookup: Met Kinase % Inhibition (P.130) of COc1cc(C)cc(O)c1C=C1C(=O)Nc2c(Br)cc(Br)c(C)c21 [10725/H06]
33.0

# lookup: Met Kinase % Inhibition (P.130) of O=C1Nc2c(Br)cc(Br)cc2C1=Cc1ccc(Cl)cc1 [10736/A02]
72.5

# lookup: Met Kinase % Inhibition (P.130) of Cc1cc(O)cc(O)c1C=C1C(=O)Nc2c(Br)cc(Br)c(C)c21 [10720/H08]
40.0

# lookup: Met Kinase % Inhibition (P.130) of Cc1c(Br)cc(Br)c2c1C(=C1C(=O)Nc3ccccc31)C(=O)N2 [10726/H09]
68.1

# lookup: Met Kinase % Inhibition (P.130) of Cc1c(Br)cc(Br)c2c1C(=Cc1cc([N+](=O)[O-])c(O)c(C(C)(C)C)c1)C(=O)N2 [10722/H02]
37.8

# lookup: Met Kinase % Inhibition (P.130) of Cc1c(Br)cc(Br)c2c1C(=Cc1ccc(C(=O)O)cc1)C(=O)N2 [10722/H05]
83.2

# lookup: Met Kinase % Inhibition (P.130) of Cc1c(Br)cc(Br)c2c1C(=CC(c1cccs1)C(F)(F)F)C(=O)N2 (centres unmarked) [10732/H02]
56.8

====

# measured-target: Met receptor (EGFR/Met chimeric cells, EMR) (Homo sapiens, UniProt P08581)
# Construct: expressed in transfected cells; the other entry of the earlier key: EGFR (P00533, Epidermal growth factor receptor)
# method-summary: Met Autophosphorylation Assay
# Format: biochemical
measured-property: Met Kinase % Inhibition (P.130) (%)
Entry rule: numbers only, all in %.

# lookup: Met Kinase % Inhibition (P.130) of O=C1Nc2c(Br)cc(Br)cc2C1=Cc1ccccc1C(F)(F)F
42.6

# lookup: Met Kinase % Inhibition (P.130) of O=C1Nc2c(Br)cc(Br)cc2C1=Cc1ccc(F)c(F)c1
53.0

# lookup: Met Kinase % Inhibition (P.130) of Cc1c(Br)cc(Br)c2c1C(=Cc1cc3c(cc1Cl)OCO3)C(=O)N2
5.2

# lookup: Met Kinase % Inhibition (P.130) of O=C1Nc2ccc(CCCl)cc2C1=Cc1ccc(O)c(Br)c1
84.7
